Biological target: Cholesteryl ester transfer protein (Homo sapiens, UniProt P11597)
Sequence (P11597 whole entry): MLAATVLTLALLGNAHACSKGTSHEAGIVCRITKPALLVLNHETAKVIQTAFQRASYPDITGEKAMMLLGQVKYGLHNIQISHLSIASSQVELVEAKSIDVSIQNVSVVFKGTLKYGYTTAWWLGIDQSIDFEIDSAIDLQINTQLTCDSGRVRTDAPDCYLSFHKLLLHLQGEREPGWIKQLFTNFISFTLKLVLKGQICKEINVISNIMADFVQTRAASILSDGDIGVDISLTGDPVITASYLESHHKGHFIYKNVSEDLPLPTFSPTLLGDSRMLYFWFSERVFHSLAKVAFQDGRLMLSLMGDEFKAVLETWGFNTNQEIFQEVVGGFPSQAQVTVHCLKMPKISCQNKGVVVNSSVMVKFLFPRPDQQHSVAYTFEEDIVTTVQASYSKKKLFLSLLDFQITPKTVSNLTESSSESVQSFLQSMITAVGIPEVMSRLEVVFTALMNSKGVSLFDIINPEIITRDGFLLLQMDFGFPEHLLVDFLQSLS
Assay: CETP Inhibition Assay: A recombinant human CETP protein (manufactured by Roar Biomedical Inc.; 4.5 ng), the acceptor lipoprotein described in (2) above (32.5 ug) and 5,5'-dithio-bis-(2-nitrobenzoic acid) (7 mM, 15 ul) were taken in a 96 well plate and the total amount of the mixture was adjusted to 48.5 ul with the PBS solution. The test compound [DMSO solution (concentration: 0.15, 0.5, 1.5, 5, 15, 50, 150 and 500 uM; 1.5 ul] was added to each well and the mixture was incubated in a thermostatic bath at 37° C. for 60 minutes. The reconstituted HDL (50 ul) described in (1) above was added to each well and the mixture was reacted in a thermostatic bath at 37° C. for 60 minutes. The 96 well plate was moved onto ice and a precipitation reagent [a mixed solution of magnesium chloride (60 mM) and 0.1% dextran sulfate [1/1 (v/v)]; 15 ul] was added to each well, and then the mixture was allowed to stand on ice for 15 minutes.
RECORDED_ENDPOINT: IC50 (nM)
Answer in nM, number only, no unit symbol.

These recorded examples may help you get a feel for the data.
MOLECULE: CC1(C)Cc2nc(C3CCN(c4ncc(N5CCS(=O)(=O)CC5)cn4)CC3)c([C@@H](F)c3ccc(C(F)(F)F)cc3)c(C3CCC(F)(F)CC3)c2[C@@H](O)C1
MEASURE_UNIT: nM
NUMERIC_VALUE: 49

MOLECULE: CC1(C)Cc2nc(C3CCN(c4ncc(OCCO)cn4)CC3)c([C@@H](F)c3ccc(C(F)(F)F)cc3)c(C3CCC(F)(F)CC3)c2[C@@H](O)C1
MEASURE_UNIT: nM
NUMERIC_VALUE: 37

MOLECULE: CC1(C)Cc2nc(C3CCN(c4ncc(Br)cn4)CC3)c([C@@H](F)c3ccc(C(F)(F)F)cc3)c(C3CCC(F)(F)CC3)c2[C@@H](O)C1 (single isomer, unassigned)
MEASURE_UNIT: nM
NUMERIC_VALUE: 150

Prompt line: What IC50 value was documented for this molecule, CCOc1cnc(N2CCC(c3nc4c(c(C5CCC(F)(F)CC5)c3[C@@H](F)c3ccc(C(F)(F)F)cc3)[C@@H](O)CC(C)(C)C4)CC2)nc1 (single isomer, unassigned) ?
Response line: 92
